Source of measurements: paper PMC7405733

Assay: Micafungin plasma pharmacokinetics in adult patients treated with ECMO (samples before and after the oxygenation membrane)
Format: in vivo, human
Conditions: human; adult ECMO patients, 100mg 60-minute iv infusion, day 1, sample after the membrane, plasma HPLC, noncompartmental; 95%CI 52.4 - 76.7; 10 patients; read-out: AUCout on day one
Procedure: We conducted an observational, prospective, noninterventional and nondrug-linked study of the PKs and safety of micafungin in adult patients treated with ECMO in two Spanish hospitals: the intensive care unit (ICU) of the Hospital Universitario Marqués de Valdecilla, Santander, and the Anaesthesiology and Reanimation Department of the Hospital Universitario La Fe, Valencia, Spain. Prophylactic micafungin was administered in all patients. The study period was from January 2015 until April 2016. […]
*1 amine or outer side, *2 acyl side, *3 side chain or, on linkers, in order; H or OH if unused. Where a SMILES comes first, the peptide text is derived from it. Bridges are numbered along the chain shown (N, C = ends). [ ]: non-standard residue; d: D form. The star is where a group is joined. hTyr(3S-OH,4S-OH,3'-OSO3H) = N[C@H](C(=O)O)[C@H](O)[C@@H](O)c1ccc(O)c(OS(=O)(=O)O)c1; Orn(4R-OH,5R-OH) = O=C([C@H](C[C@@H](O)[C@@H](O)N[*:3])N[*:1])[*:2]; Pro(3S-OH,4S-Me) = C[C@H]1CN[C@H](C(=O)O)[C@H]1O; X1 = CCCCCOc1ccc(-c2cc(-c3ccc(C(=O)*)cc3)no2)cc1; Gln(3R-OH) = NC(=O)C[C@@H](O)[C@H](N)C(=O)O; Hyp = O=C(O)[C@@H]1C[C@@H](O)CN1
measure-name: AUC

Return AUC (reported value) for this molecule: CCCCCOc1ccc(-c2cc(-c3ccc(C(=O)N[C@H]4C[C@@H](O)[C@@H](O)NC(=O)[C@@H]5[C@@H](O)[C@@H](C)CN5C(=O)[C@H]([C@H](O)CC(N)=O)NC(=O)[C@H]([C@H](O)[C@@H](O)c5ccc(O)c(OS(=O)(=O)O)c5)NC(=O)[C@@H]5C[C@@H](O)CN5C(=O)[C@H]([C@@H](C)O)NC4=O)cc3)no2)cc1 [micafungin] (X1-[Orn(4R-OH,5R-OH)]T[Hyp][hTyr(3S-OH,4S-OH,3'-OSO3H)][Gln(3R-OH)][Pro(3S-OH,4S-Me)]; lactam 1-C)
63400 ng·h/mL

====

Experiment: Micafungin plasma pharmacokinetics in adult patients treated with ECMO (samples before and after the oxygenation membrane)
Assay type: in vivo, human
Conditions: human, plasma, iv, 100 mg, Table 2, day 1, before membrane, 100mg iv, ECMO patients, noncompartmental, median; read-out: Vd in
*1 amine or outer side, *2 acyl side, *3 side chain or, on linkers, in order; H or OH if unused. Where a SMILES comes first, the peptide text is derived from it. Bridges are numbered along the chain shown (N, C = ends). [ ]: non-standard residue; d: D form. The star is where a group is joined. hTyr(3S-OH,4S-OH,3'-OSO3H) = N[C@H](C(=O)O)[C@H](O)[C@@H](O)c1ccc(O)c(OS(=O)(=O)O)c1; Orn(4R-OH,5R-OH) = O=C([C@H](C[C@@H](O)[C@@H](O)N[*:3])N[*:1])[*:2]; Pro(3S-OH,4S-Me) = C[C@H]1CN[C@H](C(=O)O)[C@H]1O; X1 = CCCCCOc1ccc(-c2cc(-c3ccc(C(=O)*)cc3)no2)cc1; Gln(3R-OH) = NC(=O)C[C@@H](O)[C@H](N)C(=O)O; Hyp = O=C(O)[C@@H]1C[C@@H](O)CN1
measure-name: Vd (L)
Write down the numeric answer in L and omit the unit.

Check the records and state Vd for CCCCCOc1ccc(-c2cc(-c3ccc(C(=O)N[C@H]4C[C@@H](O)[C@@H](O)NC(=O)[C@@H]5[C@@H](O)[C@@H](C)CN5C(=O)[C@H]([C@H](O)CC(N)=O)NC(=O)[C@H]([C@H](O)[C@@H](O)c5ccc(O)c(OS(=O)(=O)O)c5)NC(=O)[C@@H]5C[C@@H](O)CN5C(=O)[C@H]([C@@H](C)O)NC4=O)cc3)no2)cc1 [micafungin] (X1-[Orn(4R-OH,5R-OH)]T[Hyp][hTyr(3S-OH,4S-OH,3'-OSO3H)][Gln(3R-OH)][Pro(3S-OH,4S-Me)]; lactam 1-C)
28.6

====

Assay: Micafungin plasma pharmacokinetics in adult patients treated with ECMO (samples before and after the oxygenation membrane)
Assay type: in vivo, human
Details: human, plasma, iv, 100 mg, day 4, ECMO patients without acute kidney injury, after membrane, 100mg iv; read-out: No AKI AUCout
*1 amine or outer side, *2 acyl side, *3 side chain or, on linkers, in order; H or OH if unused. Where a SMILES comes first, the peptide text is derived from it. Bridges are numbered along the chain shown (N, C = ends). [ ]: non-standard residue; d: D form. The star is where a group is joined. hTyr(3S-OH,4S-OH,3'-OSO3H) = N[C@H](C(=O)O)[C@H](O)[C@@H](O)c1ccc(O)c(OS(=O)(=O)O)c1; Orn(4R-OH,5R-OH) = O=C([C@H](C[C@@H](O)[C@@H](O)N[*:3])N[*:1])[*:2]; Pro(3S-OH,4S-Me) = C[C@H]1CN[C@H](C(=O)O)[C@H]1O; X1 = CCCCCOc1ccc(-c2cc(-c3ccc(C(=O)*)cc3)no2)cc1; Gln(3R-OH) = NC(=O)C[C@@H](O)[C@H](N)C(=O)O; Hyp = O=C(O)[C@@H]1C[C@@H](O)CN1
measure-name: AUC (ng·h/mL)
Output spec: scalar in ng·h/mL, unitless text.

Please supply the value of reported AUC for the item CCCCCOc1ccc(-c2cc(-c3ccc(C(=O)N[C@H]4C[C@@H](O)[C@@H](O)NC(=O)[C@@H]5[C@@H](O)[C@@H](C)CN5C(=O)[C@H]([C@H](O)CC(N)=O)NC(=O)[C@H]([C@H](O)[C@@H](O)c5ccc(O)c(OS(=O)(=O)O)c5)NC(=O)[C@@H]5C[C@@H](O)CN5C(=O)[C@H]([C@@H](C)O)NC4=O)cc3)no2)cc1 [micafungin] (X1-[Orn(4R-OH,5R-OH)]T[Hyp][hTyr(3S-OH,4S-OH,3'-OSO3H)][Gln(3R-OH)][Pro(3S-OH,4S-Me)]; lactam 1-C)
95100

====

Experiment: Micafungin plasma pharmacokinetics in adult patients treated with ECMO (samples before and after the oxygenation membrane)
Format: in vivo, human
Conditions: human, plasma, iv, 100 mg, day 1, ECMO patients without hepatic failure, after membrane, 100mg iv; read-out: No hepatic failure AUCout
*1 amine or outer side, *2 acyl side, *3 side chain or, on linkers, in order; H or OH if unused. Where a SMILES comes first, the peptide text is derived from it. Bridges are numbered along the chain shown (N, C = ends). [ ]: non-standard residue; d: D form. The star is where a group is joined. hTyr(3S-OH,4S-OH,3'-OSO3H) = N[C@H](C(=O)O)[C@H](O)[C@@H](O)c1ccc(O)c(OS(=O)(=O)O)c1; Orn(4R-OH,5R-OH) = O=C([C@H](C[C@@H](O)[C@@H](O)N[*:3])N[*:1])[*:2]; Pro(3S-OH,4S-Me) = C[C@H]1CN[C@H](C(=O)O)[C@H]1O; X1 = CCCCCOc1ccc(-c2cc(-c3ccc(C(=O)*)cc3)no2)cc1; Gln(3R-OH) = NC(=O)C[C@@H](O)[C@H](N)C(=O)O; Hyp = O=C(O)[C@@H]1C[C@@H](O)CN1
measure-name: AUC (ng·h/mL)
Just the number in ng·h/mL, nothing appended.

Complete the entry with AUC for CCCCCOc1ccc(-c2cc(-c3ccc(C(=O)N[C@H]4C[C@@H](O)[C@@H](O)NC(=O)[C@@H]5[C@@H](O)[C@@H](C)CN5C(=O)[C@H]([C@H](O)CC(N)=O)NC(=O)[C@H]([C@H](O)[C@@H](O)c5ccc(O)c(OS(=O)(=O)O)c5)NC(=O)[C@@H]5C[C@@H](O)CN5C(=O)[C@H]([C@@H](C)O)NC4=O)cc3)no2)cc1 [micafungin] (X1-[Orn(4R-OH,5R-OH)]T[Hyp][hTyr(3S-OH,4S-OH,3'-OSO3H)][Gln(3R-OH)][Pro(3S-OH,4S-Me)]; lactam 1-C)
66100

====

Assay: Micafungin plasma pharmacokinetics in adult patients treated with ECMO (samples before and after the oxygenation membrane)
Assay type: in vivo, human
Conditions: human, plasma, iv, 100 mg, Table 2, day 4, before membrane, 100mg iv, ECMO patients, noncompartmental, median; read-out: CL in (converted)
*1 amine or outer side, *2 acyl side, *3 side chain or, on linkers, in order; H or OH if unused. Where a SMILES comes first, the peptide text is derived from it. Bridges are numbered along the chain shown (N, C = ends). [ ]: non-standard residue; d: D form. The star is where a group is joined. hTyr(3S-OH,4S-OH,3'-OSO3H) = N[C@H](C(=O)O)[C@H](O)[C@@H](O)c1ccc(O)c(OS(=O)(=O)O)c1; Orn(4R-OH,5R-OH) = O=C([C@H](C[C@@H](O)[C@@H](O)N[*:3])N[*:1])[*:2]; Pro(3S-OH,4S-Me) = C[C@H]1CN[C@H](C(=O)O)[C@H]1O; X1 = CCCCCOc1ccc(-c2cc(-c3ccc(C(=O)*)cc3)no2)cc1; Gln(3R-OH) = NC(=O)C[C@@H](O)[C@H](N)C(=O)O; Hyp = O=C(O)[C@@H]1C[C@@H](O)CN1
measure-name: clearance (mL/min)
Only the number, expressed in mL/min, is required.

Give the reported value of clearance for this record: CCCCCOc1ccc(-c2cc(-c3ccc(C(=O)N[C@H]4C[C@@H](O)[C@@H](O)NC(=O)[C@@H]5[C@@H](O)[C@@H](C)CN5C(=O)[C@H]([C@H](O)CC(N)=O)NC(=O)[C@H]([C@H](O)[C@@H](O)c5ccc(O)c(OS(=O)(=O)O)c5)NC(=O)[C@@H]5C[C@@H](O)CN5C(=O)[C@H]([C@@H](C)O)NC4=O)cc3)no2)cc1 [micafungin] (X1-[Orn(4R-OH,5R-OH)]T[Hyp][hTyr(3S-OH,4S-OH,3'-OSO3H)][Gln(3R-OH)][Pro(3S-OH,4S-Me)]; lactam 1-C)
11.8
